Taken from PubChem BioAssay AID1159580.

- assay details: chemical genetic growth profiling, strain panel (AID 1159580);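 further: tested at 20 µM; growth read once vehicle control cultures reached saturation at 30 °C; 1 = growth at the plate median or of vehicle wells; lower values mean less growth of the strain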
- assay context: S. cerevisiae deletion strains, growth OD, locus YGR078C, strain PAC10, active compounds read low
Out of some 5,500 compounds screened, about 2,000 (36%) were called active. Inconclusive results (about 18%) are left out. The list shows a part of the results.
metric: normalized growth
I'd appreciate a reply containing only the number, no unit.

Worked examples follow.
INSERT INTO measurements (compound, measured_value) VALUES
  ('Nc1cc2c(cc1Cl)C(=O)NC2=O', 1),
  ('NC[C@@H]1CC[C@@H](N)[C@@H](O[C@H]2[C@H](O)[C@@H](O[C@H]3O[C@H](CO)[C@@H](O)[C@H](N)[C@H]3O)[C@H](N)C[C@@H]2N)O1', 0.986);

Could you now look at the following compound, please?
// query Reported normalized growth, compound O=c1cc[nH]c(=S)[nH]1 : ____
// result 1.03

----------
- assay details: chemical genetic growth profiling, strain panel (AID 1159580);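 further: tested at 20 µM; growth read once vehicle control cultures reached saturation at 30 °C; 1 = growth at the plate median or of vehicle wells; lower values mean less growth of the strain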
- assay context: S. cerevisiae deletion strains, growth OD, locus YLR342W, strain FKS1 (second series), active compounds read low
Among all 5,500 compounds or so, about 2,000 (36%) were called active. About 18% were inconclusive and are not listed. The list shows a part of the results.
metric: normalized growth
I'd appreciate a reply containing only the number, no unit.

// query Reported normalized growth, molecule O=C(O)c1cc2cc(Cc3cccnc3)ccc2o1 : ____
// result 0.988

----------
normalized growth values for the compounds below.
- assay details: chemical genetic growth profiling, strain panel (AID 1159580);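 further: tested at 20 µM; growth read once vehicle control cultures reached saturation at 30 °C; 1 = growth at the plate median or of vehicle wells; lower values mean less growth of the strain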
- assay context: S. cerevisiae deletion strains, growth OD, locus YOR061W, strain CKA2, active compounds read low
Among all 5,500 compounds or so, about 2,000 (36%) were called active. Inconclusive results (about 18%) are left out. The list shows a part of the results.
I'd appreciate a reply containing only the number, no unit.

INSERT INTO assay_data (compound, measured_value) VALUES
  ('FC(F)(F)c1ccnc(N2CCCN(C(=S)Nc3ccc(Cl)cc3Cl)CC2)n1', 0.961),
  ('Cc1ccc(NS(=O)(=O)c2ccc(Cl)cc2)c(N=Cc2cc(Cl)cc(Cl)c2O)c1', 0.196),
  ('ClC1=C(C=Nc2ccc(Cl)cc2)CSc2ccc(Cl)cc21', 0.843),
  ('C=C1C(=O)OC2CC1C(OC(C)=O)C/C(C)=C/CC/C(C)=C/CC[C@]2(C)O (some centres not stated)', 1.02);

// query Reported normalized growth, compound CO[C@@]1(NC(=O)CSCC#N)C(=O)N2C(C(=O)O)=C(CSc3nnnn3C)CSC21 (some centres not stated) : ____
// result 1.01

// query Next record, please: COc1cc2c(cc1OC)C1Cc3ccc(OC)c(OC)c3CN1CC2 (configuration not stated)
// result 0.996

// query Next record, please: O=C1OC(c2ccc(O)cc2)(c2ccc(O)cc2)c2ccccc21
// result 1

// query Next record, please: O=C(C1CCCCC1)N1CC(=O)N2CCc3ccccc3C2C1 (configuration not stated)
// result 1

// query Next record, please: CC1OC1P(=O)(O)O (configuration not stated)
// result 0.987

// query Next record, please: C=C1CCC(C2CC(=O)OC2=O)C(=O)CCC2C1CC2(C)C (configuration not stated)
// result 0.991

// query Next record, please: O=C(Nc1ccc(Cl)cc1)OCCSc1nc2ccccc2s1
// result 0.928

// query Next record, please: CC(=O)Nc1ccc(S(=O)(=O)Nc2ccccc2Oc2ccc(Cl)cc2Cl)cc1
// result 0.98
